Property: EC50; scope: individual molecules
Assay Target: Androgen receptor (Homo sapiens)
Sequence (P10275 whole entry): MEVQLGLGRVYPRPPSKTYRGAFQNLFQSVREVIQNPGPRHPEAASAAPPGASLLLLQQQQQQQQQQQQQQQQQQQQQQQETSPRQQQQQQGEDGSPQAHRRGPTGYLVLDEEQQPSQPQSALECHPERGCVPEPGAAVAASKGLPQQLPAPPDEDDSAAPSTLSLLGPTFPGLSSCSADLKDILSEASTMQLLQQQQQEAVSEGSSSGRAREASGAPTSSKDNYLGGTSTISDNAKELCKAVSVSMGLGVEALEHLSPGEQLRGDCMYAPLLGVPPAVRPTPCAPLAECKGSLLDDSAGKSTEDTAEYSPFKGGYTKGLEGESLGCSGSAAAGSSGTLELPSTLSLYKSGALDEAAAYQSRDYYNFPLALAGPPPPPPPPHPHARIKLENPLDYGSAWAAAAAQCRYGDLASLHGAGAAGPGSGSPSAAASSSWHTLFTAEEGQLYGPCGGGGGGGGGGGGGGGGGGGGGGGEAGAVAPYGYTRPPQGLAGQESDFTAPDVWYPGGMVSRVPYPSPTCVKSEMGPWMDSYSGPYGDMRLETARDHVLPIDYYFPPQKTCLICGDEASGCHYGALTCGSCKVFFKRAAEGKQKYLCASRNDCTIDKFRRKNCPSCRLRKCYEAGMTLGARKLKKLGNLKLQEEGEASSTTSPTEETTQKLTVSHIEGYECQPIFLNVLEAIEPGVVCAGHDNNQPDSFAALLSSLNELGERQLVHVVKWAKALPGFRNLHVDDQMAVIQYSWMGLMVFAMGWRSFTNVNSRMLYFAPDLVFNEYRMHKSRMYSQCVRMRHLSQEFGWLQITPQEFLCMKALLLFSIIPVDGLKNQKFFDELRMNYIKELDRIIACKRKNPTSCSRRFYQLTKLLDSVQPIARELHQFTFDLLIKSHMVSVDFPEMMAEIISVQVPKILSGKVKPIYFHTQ
Give your result in nM as a bare value.

Previously resolved entries follow.
Molecule | Reported Value
CC1(C)CCc2cc3c(C(F)(F)F)cc(=O)oc3cc2N1 | 9
O=c1cc(C(F)(F)F)c2cc3c(cc2o1)NCCC3 | 19

Okay, next one:
Write down the reported EC50 of CCC1CC(CC)c2cc3c(C(F)(F)F)cc(=O)oc3cc2N1 (trans isomer) , test system: Androgen receptor (Homo sapiens). 26
